- TEST DETAILS: RP, Thermo Scientific Acclaim RSLC 120 C18, 100 × 2.1 mm, 2.2 µm, 30 °C, 0.2 mL/min, estimated dead time 1.1 min; A: 90% water + 10% methanol + 0.01% formic acid + 5 mM ammonium formate, pH 3.61; B: methanol + 0.01% formic acid + 5 mM ammonium formate, pH 3.61; gradient (min/%B) 0/1 1/1 2/39 13/99.9 15/99.9 15.1/1 20.1/1
- STATED CONDITIONS: stereoisomer not certain
PROPERTY MEASURED: LC retention time (min)

compound="COc1ccc2[nH]cc(CCN(C)C)c2c1 [MeO-DMT (5-)]" property_measured="LC retention time" measure_unit=min result_number=3.98
compound="Cc1ncsc1CCCl [Clomethiazole]" property_measured="LC retention time" measure_unit=min result_number=6.69
compound="CCc1cc2c(s1)-n1c(C)nnc1CN=C2c1ccccc1 [Deschloroetizolam]" property_measured="LC retention time" measure_unit=min result_number=8.43
compound="CNC(=O)Oc1cccc2c1OC(C)(C)C2 [Carbofuran]" property_measured="LC retention time" measure_unit=min result_number=7.01
compound="CC(C)(C)C(O)C(Oc1ccc(-c2ccccc2)cc1)n1cncn1 (stereo not given) [Bitertanol]" property_measured="LC retention time" measure_unit=min result_number=11.3
compound="CC(C)(C)C(NC(=O)c1cn(CCCCCF)c2ccccc12)C(N)=O (stereo not given) [ADBICA-5F]" property_measured="LC retention time" measure_unit=min result_number=9.72
compound="O=S1OCC2C(CO1)C1(Cl)C(Cl)=C(Cl)C2(Cl)C1(Cl)Cl (stereo not given) [Endosulfan]" property_measured="LC retention time" measure_unit=min result_number=11.2
compound="CCSC(=O)N(CC)C1CCCCC1 [Cycloate]" property_measured="LC retention time" measure_unit=min result_number=11.7
compound="CC1=NNC(=O)N(N=Cc2cccnc2)C1 [Pymetrozine]" property_measured="LC retention time" measure_unit=min result_number=4.01
compound="CN1CCN(C=C2N=C3CN=C(c4ccccc4Cl)c4cc([N+](=O)[O-])ccc4N3C2=O)CC1 [Loprazolam]" property_measured="LC retention time" measure_unit=min result_number=6.95
compound="COP(=S)(OC)SCC(=O)N(c1ccc(Cl)cc1)C(C)C [Anilofos]" property_measured="LC retention time" measure_unit=min result_number=10.8
compound="CNC(C)C(=O)c1ccccc1 (stereo not given) [Methcathinone]" property_measured="LC retention time" measure_unit=min result_number=3.68
compound="COC(=O)C(NC(=O)c1nn(CC2CCCCC2)c2ccccc12)C(C)(C)C (stereo not given) [MDMB-CHMINACA (MDMB-CHMICA)]" property_measured="LC retention time" measure_unit=min result_number=12.9
compound="CC1=C(C(=O)Nc2ccccc2)SCCO1 [Carboxin]" property_measured="LC retention time" measure_unit=min result_number=7.46
compound="CCCCn1cc(C(=O)c2cccc3ccccc23)c2cccc(O)c21 [JWH-073-M-7-OH-Ind]" property_measured="LC retention time" measure_unit=min result_number=11.2

====

Entries and their LC retention time values follow.
- TEST DETAILS: RP, Thermo Scientific Acclaim RSLC 120 C18, 100 × 2.1 mm, 2.2 µm, 30 °C, 0.2 mL/min, estimated dead time 1.1 min; A: 90% water + 10% methanol + 0.01% formic acid + 5 mM ammonium formate, pH 3.61; B: methanol + 0.01% formic acid + 5 mM ammonium formate, pH 3.61; gradient (min/%B) 0/1 1/1 2/39 13/99.9 15/99.9 15.1/1 20.1/1
- STATED CONDITIONS: stereoisomer not certain
PROPERTY MEASURED: LC retention time

molecule=O=C(Nc1ccccc1-c1ccc(Cl)cc1)c1cccnc1Cl result="9.4 min"
molecule="CC1=CC(=O)N2CC(=O)N(C)c3ccc(Cl)cc3C2(c2ccccc2)O1 (configuration not stated)" result="9.79 min"
molecule=COC(=O)c1ccccc1S(=O)(=O)NC(=O)Nc1nc(C)nc(OC)n1 result="6.31 min"
molecule="CNC(=O)Oc1cccc2c1OC(C)(C)C2O (configuration not stated) [Carbofuran-3-hydroxy]" result="5.09 min"
molecule=CCC(=O)C(CCN(C)C)(c1ccccc1)c1ccccc1 result="7.68 min"
molecule="CCC(C)c1ccccc1OC(=O)NC (configuration not stated)" result="9.05 min"
molecule=Cc1ccc(NC(=O)NC(C)(C)c2ccccc2)cc1 result="9.68 min"
molecule=CCC(CC)Nc1c([N+](=O)[O-])cc(C)c(C)c1[N+](=O)[O-] result="12.8 min"
molecule="CCC=CCC1=C(C)C(OC(=O)C2C(C=C(C)C)C2(C)C)CC1=O (configuration not stated)" result="13.3 min"
molecule="CC12CC(O)C3C(CCC4=CC(=O)CCC43C)C1CCC2=O (configuration not stated)" result="8.23 min"
molecule="C=CCC1(C(C)C#CCC)C(=O)NC(=O)N(C)C1=O (configuration not stated)" result="9.09 min"
molecule=COc1cc(OC)n2nc(S(=O)(=O)Nc3c(Cl)ccc(C)c3Cl)nc2n1 result="7.1 min"

Taken from the RepoRT retention time repository (doi:10.1021/acs.analchem.2c02893).
